Catalogue of IC50 readings, one per entry.
- target_desc: acyl-CoA: cholesterol acyltransferase (ACAT) (Oryctolagus cuniculus, UniProt G1SFD9)
- Construct: tissue preparation containing rabbit intestinal microsomes; from tissue; host or cells: rabbit intestinal microsomes
- Sequence (G1SFD9 1-524): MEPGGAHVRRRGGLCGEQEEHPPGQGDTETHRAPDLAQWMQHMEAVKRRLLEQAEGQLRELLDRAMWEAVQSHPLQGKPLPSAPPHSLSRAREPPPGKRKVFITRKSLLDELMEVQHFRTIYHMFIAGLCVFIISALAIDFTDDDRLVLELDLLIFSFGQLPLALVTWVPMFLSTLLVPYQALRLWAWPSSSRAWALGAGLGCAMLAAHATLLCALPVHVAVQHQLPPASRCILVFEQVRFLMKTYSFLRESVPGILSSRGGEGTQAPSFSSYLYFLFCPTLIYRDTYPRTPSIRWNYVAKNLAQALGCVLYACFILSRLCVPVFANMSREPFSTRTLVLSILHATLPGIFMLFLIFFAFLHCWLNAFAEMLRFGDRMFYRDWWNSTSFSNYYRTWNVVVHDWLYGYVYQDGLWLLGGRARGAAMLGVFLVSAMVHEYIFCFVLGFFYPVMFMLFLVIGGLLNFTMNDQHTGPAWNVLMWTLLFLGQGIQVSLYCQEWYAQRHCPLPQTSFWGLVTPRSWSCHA
- test: in vitro ACAT inhibition (IAI): formation of radiolabeled cholesterol oleate from radiolabeled oleic acid in rabbit intestinal microsomes
- Type: biochemical
- experimental_context: rabbit intestinal microsomes; read-out: IAI IC50
Where a name gives a salt, the structure may show the parent alone.
Dear colleague, please return just the value in µM, with no unit written.

Sample answers from the record:
compound="Cc1cc(C(C)(C)C)c(OC(=O)NS(=O)(=O)N(C)CCc2ccccc2)c(C(C)(C)C)c1 [Example 27]" measurement_units=µM measurement=18.9
compound="Cc1cc(C(C)(C)C)c(OC(=O)NS(=O)(=O)N(C)CCc2ccccn2)c(C(C)(C)C)c1 [Example 32, hydrochloride salt]" measurement_units=µM measurement=31

Here's the next entry for you.
Please look up its IC50: CCCCN(CCCC)S(=O)(=O)NC(=O)Oc1c(C(C)C)cccc1C(C)C [Example 11]
1.9
